Values from ChEMBL document CHEMBL1649259

# Tested on: Proteus mirabilis
# experiment description: Antibacterial activity against CTX-M-14 ESBL producing Proteus mirabilis assessed as resistant isolates by disk diffusion method
# Format: functional
Entries and their measured Activity follow.
endpoint label: Activity (%)

>  <compound structure>
CCn1cc(C(=O)O)c(=O)c2cc(F)c(N3CCNCC3)cc21

>  <test result>
100

$$$$
>  <compound structure>
O=C(N[C@H](CO)[C@H](O)c1ccc([N+](=O)[O-])cc1)C(Cl)Cl

>  <test result>
100

$$$$
>  <compound structure>
COc1cc(Cc2cnc(N)nc2N)cc(OC)c1OC

>  <test result>
100

$$$$
>  <compound structure>
O=C(O)c1cn(C2CC2)c2cc(N3CCNCC3)c(F)cc2c1=O

>  <test result>
100

$$$$
>  <compound structure>
CN(C)[C@@H]1C(O)=C(C(N)=O)C(=O)[C@@]2(O)C(O)=C3C(=O)c4c(O)cccc4[C@@](C)(O)[C@H]3C[C@@H]12

>  <test result>
100

$$$$
>  <compound structure>
CCn1cc(C(=O)O)c(=O)c2ccc(C)nc21

>  <test result>
100

$$$$
>  <compound structure>
NC[C@H]1O[C@H](O[C@H]2[C@H](O)[C@@H](O[C@H]3O[C@H](CO)[C@@H](O)[C@H](N)[C@H]3O)[C@H](N)C[C@@H]2N)[C@H](N)C[C@@H]1O

>  <test result>
0

$$$$
>  <compound structure>
NCC[C@H](O)C(=O)N[C@@H]1C[C@H](N)[C@@H](O[C@H]2O[C@H](CN)[C@@H](O)[C@H](O)[C@H]2O)[C@H](O)[C@H]1O[C@H]1O[C@H](CO)[C@@H](O)[C@H](N)[C@H]1O

>  <test result>
0

$$$$
